System: Escherichia coli ED1a
assay details: growth AUC relative to DMSO control (median of replicates) (fraction); higher = more growth (less inhibition), active = hit call of the paper
condition description: 20 µM; 24 h
readout kind: growth AUC
Respond using a number only.

INPUT: Find the recorded growth AUC belonging to COc1c(Cl)ccc(Cl)c1C(=O)O and report it.
OUTPUT: 0.99

----------
Tested on: Coprococcus comes
assay details: growth AUC relative to DMSO control (median of replicates) (fraction); higher = more growth (less inhibition), active = hit call of the paper
condition description: 20 µM; 24 h
readout kind: growth AUC
Respond using a number only.

| compound | target or system | growth AUC |
| --- | --- | --- |
| CON(C(=O)c1cc(C)oc1C)C1CCCCC1 | Coprococcus comes | 0.992 |
| S=C([S-])NCCNC(=S)[S-].[Mn+2] | Coprococcus comes | 0.998 |
| COC(=O)c1c(Cl)nn(C)c1S(=O)(=O)NC(=O)Nc1nc(OC)cc(OC)n1 | Coprococcus comes | 1 |
| CCc1cccc(CC)c1N(COC)C(=O)C(=O)O | Coprococcus comes | 0.981 |

INPUT: Find the recorded growth AUC belonging to NC(Cn1cncn1)C(=O)O (centres undefined) and report it.
OUTPUT: 1.01

INPUT: Find the recorded growth AUC belonging to CC(C)(C)Nc1nc(N)nc(Cl)n1 and report it.
OUTPUT: 0.999

INPUT: Find the recorded growth AUC belonging to CCSC(=O)COc1ccc(Cl)cc1C and report it.
OUTPUT: 0.981

INPUT: Find the recorded growth AUC belonging to S=C([S-])NCCNC(=S)[S-].S=C([S-])NCCNC(=S)[S-].[Mn+2].[Zn+2] and report it.
OUTPUT: 0.99

INPUT: Find the recorded growth AUC belonging to CC1(C)C(C(=O)OC(C#N)c2cccc(Oc3ccccc3)c2)C1C(Br)C(Br)(Br)Br (centres undefined) and report it.
OUTPUT: 0.99

INPUT: Find the recorded growth AUC belonging to CCc1cccc(C)c1N(C(=O)C(=O)O)[C@@H](C)C(=O)O and report it.
OUTPUT: 1.02

----------
System: Bifidobacterium longum subsp. longum
assay details: growth AUC relative to DMSO control (median of replicates) (fraction); higher = more growth (less inhibition), active = hit call of the paper
condition description: 20 µM; 24 h
readout kind: growth AUC
Respond using a number only.

Below are worked cases with known answers.
| molecule | value reported |
| --- | --- |
| CCNc1nc(NC(C)(C)C)[nH]c(=O)n1 | 1.03 |
| CCCCCCCCOC(=O)COc1cc(Cl)c(Cl)cc1Cl | 0.97 |
| Clc1ccc(C(c2ccccc2Cl)C(Cl)Cl)cc1 (stereo unspecified) | 1.03 |
| COC(=O)C(C)Oc1ccc(Oc2ncc(C(F)(F)F)cc2Cl)cc1 (stereo unspecified) | 1.02 |

INPUT: Find the recorded growth AUC belonging to O=C(O)CNC(=O)c1cnccc1C(F)(F)F and report it.
OUTPUT: 1.06

INPUT: Find the recorded growth AUC belonging to Nc1ccc(S(=O)(=O)Nc2cnc3ccccc3n2)cc1 and report it.
OUTPUT: 1.12

----------
Test system: Bacteroides clarus
assay details: growth AUC relative to DMSO control (median of replicates) (fraction); higher = more growth (less inhibition), active = hit call of the paper
condition description: 20 µM; 24 h
readout kind: growth AUC
Respond using a number only.

Below are worked cases with known answers.
| compound | value reported |
| --- | --- |
| O.O.O=[N+]([O-])c1ccc([O-])cc1.[Na+] | 1 |
| COC(=O)C(C)Oc1cc(Cl)c(Cl)cc1Cl (centres undefined) | 1 |
| C[S+](C)CCC(=O)O.[Cl-] | 0.974 |

Now take the following compound into account.
INPUT: Find the recorded growth AUC belonging to COC1CCC2(CC1)NC(=O)C(O)(c1cc(C)ccc1C)C2=O (centres undefined) and report it.
OUTPUT: 1.02

----------
Test system: Lactobacillus gasseri
assay details: growth AUC relative to DMSO control (median of replicates) (fraction); higher = more growth (less inhibition), active = hit call of the paper
condition description: 20 µM; 24 h
Recorded measurements of growth AUC, one per entry
Respond using a number only.

| compound | growth AUC |
| --- | --- |
| O=C(O)COc1ccc(Cl)cc1CO | 0.852 |
| COc1cc(Cl)ccc1Oc1ccc(Cl)cc1Cl | 1 |
| Clc1ccc(Sc2cc(Cl)c(Cl)cc2Cl)cc1 | 0.86 |
| c1ccc2c(c1)Cc1ccccc1-2 | 1.05 |
| Br[C@@H]1CC[C@@H](Br)[C@@H](Br)CC[C@H](Br)[C@H](Br)CC[C@H]1Br | 0.91 |
| Oc1ccc2nc(-c3cscn3)[nH]c2c1 | 0.869 |

Now take the following compound into account.
INPUT: // map CCOC(=O)c1cnn(C)c1S(=O)(=O)NC(=O)Nc1nc(OC)cc(OC)n1 to recorded growth AUC (system: Lactobacillus gasseri)
OUTPUT: 1.1

----------
Test system: Parabacteroides distasonis
assay details: growth AUC relative to DMSO control (median of replicates) (fraction); higher = more growth (less inhibition), active = hit call of the paper
condition description: 20 µM; 24 h
readout kind: growth AUC
Respond using a number only.

Below are worked cases with known answers.
| compound | growth AUC |
| --- | --- |
| CC(C)N(C(=O)C(=O)O)c1ccc(F)cc1 | 1 |
| CCCCCCCC(=O)Oc1c(Br)cc(C#N)cc1Br | 0.975 |
| Cc1cccc(C)c1N(C(=O)CCl)C1CCOC1=O (stereo unspecified) | 0.99 |
| CSc1nc(NC2CC2)nc(NC(C)(C)C)n1 | 1.02 |
| CCOC(=O)Cc1[nH]nc2ccc(Cl)cc12 | 0.983 |
| CCOC(=O)c1ccc(O)cc1 | 0.893 |
| C/C=C/C(=O)Oc1c(C(C)CCCCCC)cc([N+](=O)[O-])cc1[N+](=O)[O-] (mixture of isomers) | 0.288 |
| COc1ccc(NC(=O)N(C)C)cc1Cl | 0.99 |
| CCN(CC)C(=O)c1cccc(C)c1 | 1.01 |
| S=C([S-])NCCNC(=S)[S-].[Zn+2] | 1.01 |

INPUT: Find the recorded growth AUC belonging to Cc1nn(C)c(F)c1C(=O)Nc1ccccc1C(C)CC(C)C (stereo unspecified) and report it.
OUTPUT: 0.96

INPUT: Find the recorded growth AUC belonging to CO/N=C(/C(=O)O)c1ccccc1CO/N=C(\C)c1cccc(C(F)(F)F)c1 and report it.
OUTPUT: 0.985

INPUT: Find the recorded growth AUC belonging to C=CCO/N=C(\CCC)C1=C([O-])CC(C)(C)C(C(=O)OC)C1=O.[Na+] (stereo unspecified) and report it.
OUTPUT: 1.01

----------
System: Coprococcus comes
assay details: growth AUC relative to DMSO control (median of replicates) (fraction); higher = more growth (less inhibition), active = hit call of the paper
condition description: 20 µM; 24 h
readout kind: growth AUC
Respond using a number only.

| molecule | growth AUC |
| --- | --- |
| CCOC(=O)NCCOc1ccc(Oc2ccccc2)cc1 | 0.954 |
| COC1CCC2(CC1)NC(=O)C(c1cc(C)ccc1C)=C2O (configuration not stated) | 1.02 |
| CC(C)CCCCCCc1ccc(O)cc1 | 1.01 |
| O=C(Oc1ccccc1)n1c(C(F)(F)F)nc2cc(Cl)c(Cl)cc21 | 1.03 |
| C[C@@]1(c2ccccc2)NC(=O)N(Nc2ccccc2)C1=O | 1.03 |

INPUT: Find the recorded growth AUC belonging to c1ccc2cc3ccccc3cc2c1 and report it.
OUTPUT: 0.927

INPUT: Find the recorded growth AUC belonging to CCCCOC(=O)COc1ccc(Cl)cc1Cl and report it.
OUTPUT: 0.991

INPUT: Find the recorded growth AUC belonging to CCc1cccc(C)c1N(COC(C)C)C(=O)CCl and report it.
OUTPUT: 1.03

INPUT: Find the recorded growth AUC belonging to CCCCCC(C)OC(=O)COc1ccc(Cl)c2cccnc12 (configuration not stated) and report it.
OUTPUT: 0.795

INPUT: Find the recorded growth AUC belonging to COc1nc(NC(=O)NS(=O)(=O)c2ccccc2C(F)(F)F)nc(C(F)(F)F)n1 and report it.
OUTPUT: 1.01

INPUT: Find the recorded growth AUC belonging to [O-][n+]1nc(-n2ccnc2)nc2ccc(Cl)cc21 and report it.
OUTPUT: 1.04

INPUT: Find the recorded growth AUC belonging to O=S(=O)(Cc1ccc(Cl)cc1)c1ccc(Cl)cc1 and report it.
OUTPUT: 0.978

INPUT: Find the recorded growth AUC belonging to CNC(=O)/C(=N/OC)c1ccccc1COc1cc(C(=O)O)ccc1C and report it.
OUTPUT: 0.984

INPUT: Find the recorded growth AUC belonging to O=C(O)Cc1c(Cl)ccc(Cl)c1Cl and report it.
OUTPUT: 0.959

INPUT: Find the recorded growth AUC belonging to O=C(NC(=O)c1c(F)cccc1F)Nc1cc(C(F)(F)F)cc(C(F)(F)F)c1Cl and report it.
OUTPUT: 0.932

INPUT: Find the recorded growth AUC belonging to Cc1[nH]n(C)c(=O)c1C(=O)c1ccc(C(F)(F)F)cc1S(C)(=O)=O and report it.
OUTPUT: 0.991

INPUT: Find the recorded growth AUC belonging to CSc1nc(NC2CC2)nc(NC(C)(C)C)n1 and report it.
OUTPUT: 0.981
